Experiment: Plasma half life when dosed orally at 1 mpk and intravenously at 0.2 mpk to dogs; n = 2
Format: ADME, organism-based, Canis lupus familiaris
Details: dog
Listed here are molecules together with their documented half-life.
The reply should contain only the number, in h.

Check out these entries, answers already filled in.
recordSmiles | half-life (h)
COc1ccc([C@@H](CCCC(=O)CCc2ccc3c(n2)NCCC3)CC(=O)O)cn1 | 7
COc1ccc([C@@H](CCCCCCc2ccc3c(n2)NCCC3)CC(=O)O)cn1 | 9

We now examine a further molecule.
Query block: // lookup half-life for COc1ccc([C@@H](CCC[C@H](O)CCc2ccc3c(n2)NCCC3)CC(=O)O)cn1
Result block: 6.1

---

Recorded clearance for the following compounds
Assay: Clearance when dosed intravenously at 0.2 mpk to dogs; n = 2
Type: ADME, organism-based, Canis lupus familiaris
Settings: dog, in vivo, iv, 0.2 mg/kg
Write down the value, and be sure its unit follows.

Some solved cases for reference:
recordSmiles | experimentalResult
COc1ccc([C@@H](CCC[C@H](O)CCc2ccc3c(n2)NCCC3)CC(=O)O)cn1 | 2.5 mL/min/kg
COc1ccc([C@@H](CCCC(=O)CCc2ccc3c(n2)NCCC3)CC(=O)O)cn1 | 6.7 mL/min/kg

Query block: If you can, please state the reported clearance value of COc1ccc([C@@H](CCCCCCc2ccc3c(n2)NCCC3)CC(=O)O)cn1 .
Result block: 4 mL/min/kg

---

Quick reference for IC50 among some molecules
Biological target: Integrin alpha-V/beta-3 (Homo sapiens, UniProt P05106+P06756)
Sequence (P05106 27-788 limits assumed): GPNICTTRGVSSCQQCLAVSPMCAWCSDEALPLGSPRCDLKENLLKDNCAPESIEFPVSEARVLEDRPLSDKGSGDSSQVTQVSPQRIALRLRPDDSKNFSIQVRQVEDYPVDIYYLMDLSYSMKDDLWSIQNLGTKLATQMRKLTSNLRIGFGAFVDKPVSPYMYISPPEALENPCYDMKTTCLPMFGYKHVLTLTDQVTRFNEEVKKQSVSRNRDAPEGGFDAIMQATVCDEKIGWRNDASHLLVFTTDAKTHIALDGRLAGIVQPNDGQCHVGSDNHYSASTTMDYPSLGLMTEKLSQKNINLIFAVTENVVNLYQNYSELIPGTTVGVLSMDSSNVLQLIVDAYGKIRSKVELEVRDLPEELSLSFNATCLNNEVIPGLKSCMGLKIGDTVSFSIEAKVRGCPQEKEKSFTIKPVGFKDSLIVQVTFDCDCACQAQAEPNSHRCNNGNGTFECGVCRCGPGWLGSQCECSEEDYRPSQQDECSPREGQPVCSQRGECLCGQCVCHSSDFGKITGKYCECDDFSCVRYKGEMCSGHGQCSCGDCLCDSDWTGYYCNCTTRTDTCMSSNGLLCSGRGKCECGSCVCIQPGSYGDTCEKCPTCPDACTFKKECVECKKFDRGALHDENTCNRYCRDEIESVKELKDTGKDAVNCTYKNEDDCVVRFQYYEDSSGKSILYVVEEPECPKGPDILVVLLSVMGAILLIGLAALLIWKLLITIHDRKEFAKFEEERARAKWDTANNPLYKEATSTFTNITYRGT
Sequence (P06756 31-889 limits assumed): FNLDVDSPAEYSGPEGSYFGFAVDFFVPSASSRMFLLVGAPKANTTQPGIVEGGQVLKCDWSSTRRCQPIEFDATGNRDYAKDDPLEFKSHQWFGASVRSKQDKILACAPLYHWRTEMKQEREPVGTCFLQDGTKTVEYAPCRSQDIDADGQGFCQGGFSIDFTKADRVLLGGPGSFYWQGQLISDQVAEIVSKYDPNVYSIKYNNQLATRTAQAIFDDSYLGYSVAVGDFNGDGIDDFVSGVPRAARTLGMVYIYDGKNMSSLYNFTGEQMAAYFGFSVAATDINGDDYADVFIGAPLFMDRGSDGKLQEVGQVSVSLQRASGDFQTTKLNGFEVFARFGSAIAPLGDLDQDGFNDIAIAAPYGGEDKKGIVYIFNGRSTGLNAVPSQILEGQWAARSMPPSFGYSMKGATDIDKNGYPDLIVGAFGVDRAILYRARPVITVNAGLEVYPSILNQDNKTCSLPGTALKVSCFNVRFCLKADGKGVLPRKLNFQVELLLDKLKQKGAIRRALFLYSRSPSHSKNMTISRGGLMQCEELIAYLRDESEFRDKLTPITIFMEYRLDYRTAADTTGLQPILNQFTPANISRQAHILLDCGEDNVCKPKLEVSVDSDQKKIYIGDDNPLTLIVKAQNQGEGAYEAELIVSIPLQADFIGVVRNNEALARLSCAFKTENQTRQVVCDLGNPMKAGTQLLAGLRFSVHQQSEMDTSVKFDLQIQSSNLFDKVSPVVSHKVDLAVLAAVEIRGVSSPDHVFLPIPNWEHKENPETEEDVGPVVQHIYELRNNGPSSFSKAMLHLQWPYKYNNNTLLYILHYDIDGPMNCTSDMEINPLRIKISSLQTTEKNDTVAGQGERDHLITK
Sequence (P06756 891-1048 limits assumed): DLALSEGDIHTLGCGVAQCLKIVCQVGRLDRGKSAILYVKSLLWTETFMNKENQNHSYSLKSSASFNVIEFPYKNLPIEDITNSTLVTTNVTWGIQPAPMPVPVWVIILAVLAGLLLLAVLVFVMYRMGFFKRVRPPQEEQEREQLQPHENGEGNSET
Assay: Inhibition of 2(S)-(4-125I-benzenesulphonylamino)-3-4-[2-(5,6,7,8-tetrahydro- [1,8]naphthyridin-2-yl)-ethyl]-benzoylamino-propionic acid binding to alphaV-beta3 integrin
Type: protein-complex assay
# include the unit after the value

Below are worked cases with known answers.
recordSmiles | IC50
COc1ccc([C@@H](CCC[C@@H](O)CCc2ccc3c(n2)NCCC3)CC(=O)O)cn1 | 0.24 nM
COc1ccc([C@@H](CCCC(=O)CCc2ccc3c(n2)NCCC3)CC(=O)O)cn1 | 0.16 nM

Query molecule follows.
Query block: Find the recorded IC50 belonging to COc1ccc([C@@H](CCC[C@H](O)CCc2ccc3c(n2)NCCC3)CC(=O)O)cn1 and report it.
Result block: 0.24 nM

---

Test: Oral bioavailability in dog (dose 1 mg/kg)
Assay type: ADME, organism-based, Canis lupus familiaris
Details: in vivo
Recorded bioavailability for the following compounds

recordSmiles | metric | experimentalResult
COc1ccc([C@@H](CCCC(=O)CCc2ccc3c(n2)NCCC3)CC(=O)O)cn1 | bioavailability | 75%

Attention now turns to another entry.
Query block: Given COc1ccc([C@@H](CCC[C@H](O)CCc2ccc3c(n2)NCCC3)CC(=O)O)cn1 , state its recorded bioavailability.
Result block: 60%
